Molecular target: ScSho1
Assay: SPOT peptide array binding signal intensity (averaged, normalized) (arbitrary units (background-subtracted, floor 0; scale differs between SH3 domains)); higher = stronger binding of the SH3 domain to the peptide
quantity_name: SPOT peptide array binding signal intensity
Give bare numbers.

As a guide, the following entries are already answered.
>  <binder>
RKRRTHLRLPLIRSN

>  <result>
1440

$$$$
>  <binder>
FPPKRKPLLRPQRSD

>  <result>
1040

$$$$
>  <binder>
DKKTKPTPPPKPSHL

>  <result>
280

$$$$

Q: Reported SPOT peptide array binding signal intensity for "FYNRTAFQLPGDARV" : what is it?
Ans: 1
